- protocol_text: In vivo pharmacokinetics, plasma (UPLC-MS/MS)
- Parameters: species or system rat
- condition: male, SD; AH in rat plasma; tail intravenous injection group, 9 mg/kg; read-out: MRTlast (mean retention time)
Where a name gives a salt, the structure may show the parent alone.
measured_parameter: MRT last (min)
Just the number please, in min, no unit attached.

Return value of MRT last for input Nc1c(Br)cc(Br)cc1CNC1CCC(O)CC1 (stereo not shown) [AH, ambroxol hydrochloride] , no commentary.
49.2

----------
- protocol_text: In vivo pharmacokinetics, plasma (UPLC-MS/MS)
- Design: species or system rat
- condition: male, SD, inhaled; rat plasma; pulmonary administration BA/AH-DPI 9 mg/kg; 240 min; read-out: Blood concentration of AH
Where a name gives a salt, the structure may show the parent alone.
measured_parameter: concentration at 240 min (ng/mL)
Just the number please, in ng/mL, no unit attached.

Return value of concentration at 240 min for input Nc1c(Br)cc(Br)cc1CNC1CCC(O)CC1 (stereo not shown) [AH, ambroxol hydrochloride] , no commentary.
21

----------
- protocol_text: In vivo pharmacokinetics, plasma (UPLC-MS/MS)
- Design: species or system rat
- condition: male, SD; rat plasma; tail intravenous injection BA/AH-DPI saline solution 9 mg/kg; 120 min; read-out: Blood concentration of AH
Counter-ions that a name gives are not always drawn.
measured_parameter: concentration at 120 min
Just the number plus its unit, please.

Return value of concentration at 120 min for input Nc1c(Br)cc(Br)cc1CNC1CCC(O)CC1 (stereo not shown) [AH, ambroxol hydrochloride] , no commentary.
49.4 ng/mL

----------
- protocol_text: In vivo pharmacokinetics, lung tissue homogenate (UPLC-MS/MS)
- Set-up: species or system rat
- condition: male, Sprague-Dawley (SD); rat lung tissue homogenate; tail intravenous injection BA/AH-DPI saline solution 9 mg/kg; 360 min; read-out: Drug concentration of BA in lung tissue
measured_parameter: concentration at 360 min
Just the number plus its unit, please.

Return value of concentration at 360 min for input O=C(O)[C@H]1O[C@@H](Oc2cc3oc(-c4ccccc4)cc(=O)c3c(O)c2O)[C@H](O)[C@@H](O)[C@@H]1O , no commentary.
2.71 ng/mL

----------
- protocol_text: In vivo pharmacokinetics, plasma (UPLC-MS/MS)
- Design: species or system rat
- condition: male, Sprague-Dawley (SD), inhaled; rat plasma; pulmonary administration BA/AH-DPI 9 mg/kg; 4 min; read-out: Blood concentration of AH
- Protocol: SPF-grade healthy SD male rats, body weight 180-220 g, purchased from SPF (Beijing) Biotechnology Co., Ltd (Certificate No. SCXK (Beijing) 2019-0010), were conventionally reared under (23±2)° C., humidity: (50±10)%. […] 100 μL of the plasma sample or lung tissue supernatant was precisely absorbed, and 200 μL (100 ng/mL) of methanol solution containing the internal standard was added. […] The contents of BA and AH were determined by UPLC-MS/MS method. […]
Where a name gives a salt, the structure may show the parent alone.
measured_parameter: concentration at 4 min (ng/mL)
Just the number please, in ng/mL, no unit attached.

Return value of concentration at 4 min for input Nc1c(Br)cc(Br)cc1CNC1CCC(O)CC1 (stereo not shown) [AH, ambroxol hydrochloride] , no commentary.
1770

----------
- protocol_text: In vivo pharmacokinetics, plasma (UPLC-MS/MS)
- Design: species or system rat
- condition: male, SD, inhaled or intranasal; BA in rat plasma; pulmonary administration group, BA/AH-DPI 9 mg/kg
- Experimental: SPF-grade healthy SD male rats, body weight 180-220 g, purchased from SPF (Beijing) Biotechnology Co., Ltd (Certificate No. SCXK (Beijing) 2019-0010), were conventionally reared under (23±2)° C., humidity: (50±10)%. […] 100 μL of the plasma sample or lung tissue supernatant was precisely absorbed, and 200 μL (100 ng/mL) of methanol solution containing the internal standard was added. […] The contents of BA and AH were determined by UPLC-MS/MS method. […]
measured_parameter: Cmax (ng/mL)
Just the number please, in ng/mL, no unit attached.

Return value of Cmax for input O=C(O)[C@H]1O[C@@H](Oc2cc3oc(-c4ccccc4)cc(=O)c3c(O)c2O)[C@H](O)[C@@H](O)[C@@H]1O , no commentary.
2560
